- ASSAY OVERVIEW: NCI Yeast Anticancer Drug Screen. Data for the rad50 strain (AID 155)
- STATED CONDITIONS: S. cerevisiae rad50 strain growth inhibition; at 50.0 µM (retest, dose inferred, filed as 5.0); active compounds read high
This is part of a sample that, as a whole, favours compounds with a hit. Of some 79,000 tested, about 15% had one in any assay.
# if value of growth inhibition reaches 80%, tag T; if it stays below, tag F

>>> df
                                   compound  class_assignment
0  CS(=O)(=O)Nc1ccc(Nc2c3ccccc3nc3ccccc23)cc1                 F
1  Cc1ccc(O)c(C(c2cc(C)ccc2O)c2cc([N+](=O)[O-])ccc2O)c1                 T
2      O=C(Nc1ccccc1)C(F)(F)C(F)(F)C(F)(F)F                 F
3  O=[N+]([O-])c1cc(Cl)cc(C(c2cc(Cl)cc([N+](=O)[O-])c2O)C(Cl)(Cl)Cl)c1O                 T
4  O=C(NCCCCCCNC(=O)n1cc(F)c(=O)[nH]c1=O)NC1C(O)OC(CO)C(O)C1O (stereo not given)                 T
5  CC1(c2ccccc2)OC(=O)C=CC1=O (stereo not given)                 T
6  CCOc1cc(C(c2ccc(N(C)C)cc2)c2ccc(N(C)C)cc2)ccc1O                 F
7  C1=C([P+](c2ccccc2)(c2ccccc2)c2ccccc2)CCCC1                 T
